This collection of values is drawn from ChEMBL document CHEMBL1201862.

- system: UniProtKB Q6QLK5
- Sequence (Q6QLK5 whole entry, the tested form may be a part): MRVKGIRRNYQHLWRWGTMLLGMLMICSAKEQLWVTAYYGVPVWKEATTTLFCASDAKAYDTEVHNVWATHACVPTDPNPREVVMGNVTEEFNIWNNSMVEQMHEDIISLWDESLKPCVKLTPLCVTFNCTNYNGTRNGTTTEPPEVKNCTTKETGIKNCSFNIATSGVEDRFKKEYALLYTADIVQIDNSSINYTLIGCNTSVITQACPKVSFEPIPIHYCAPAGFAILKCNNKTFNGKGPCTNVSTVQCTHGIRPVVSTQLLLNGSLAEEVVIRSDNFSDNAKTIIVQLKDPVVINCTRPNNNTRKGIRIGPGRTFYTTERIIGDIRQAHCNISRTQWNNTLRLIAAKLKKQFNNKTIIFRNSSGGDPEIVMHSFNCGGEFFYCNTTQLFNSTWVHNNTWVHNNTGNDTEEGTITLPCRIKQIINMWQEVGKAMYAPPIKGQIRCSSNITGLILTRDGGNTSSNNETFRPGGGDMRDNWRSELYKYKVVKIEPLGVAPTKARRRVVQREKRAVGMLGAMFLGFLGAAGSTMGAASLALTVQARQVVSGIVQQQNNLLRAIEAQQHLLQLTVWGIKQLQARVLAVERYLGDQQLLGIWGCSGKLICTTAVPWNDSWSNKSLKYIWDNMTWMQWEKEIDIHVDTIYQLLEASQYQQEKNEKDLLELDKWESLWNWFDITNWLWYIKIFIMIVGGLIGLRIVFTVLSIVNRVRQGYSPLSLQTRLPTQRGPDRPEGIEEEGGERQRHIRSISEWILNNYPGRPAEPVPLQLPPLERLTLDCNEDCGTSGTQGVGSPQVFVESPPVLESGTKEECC
- experimentDescription: inhibitors of HIV fusion peptide binding, primary screen, biochemical, uHTS, fluorescence dequenching (AID 1986)
Activity calls are given as the source filed them. No stated cut-off is given here; in the data, actives have a measured IC50 and inactives only a lower limit.
Listed molecules paired with reported IC50
measuredAttribute: IC50

{"molecule": "O=C(O)C1Nc2ccc(Br)cc2C2C=CCC12 (centres undefined)", "measuredAttribute": "IC50", "result": "10.9 µM (active)"}
{"molecule": "O=C(O)c1[nH]c2ccccc2c1C(c1ccccc1)c1c(C(=O)O)[nH]c2ccccc12", "measuredAttribute": "IC50", "result": "14 µM (active)"}
{"molecule": "Cc1sc(-n2c(C)cc(/C=C3\\SC(=S)NC3=O)c2C)c(C#N)c1C", "measuredAttribute": "IC50", "result": "24.1 µM (active)"}
{"molecule": "CCc1ccc(S(=O)(=O)/N=C2\\C=C(NS(=O)(=O)c3ccccc3)C(=O)c3ccccc32)cc1", "measuredAttribute": "IC50", "result": "19.7 µM (active)"}
